These entries and their values trace back to the supplement of paper PMC9112550.

# shrunken log2 fold change values compiled below
Test system: Escherichia coli TOP10
Assay: shrunken log2 fold change of peptide-encoding DNA abundance (4.5 h post-induction vs induction); higher = less antimicrobial activity (less host growth inhibition)
Conditions: time post-induction: 4.5 h; library: site-saturation at positions 5, 18, 19, 20
Reply with the value as a number alone.

Consider the reported shrunken log2 fold change for these sequences:
Notebook: pull reported shrunken log2 fold change for Escherichia coli TOP10, entry RRIRDRPPRLPRPRPRPLEEPRP 0.0347

Please tell me: shrunken log2 fold change of RRIRKRPPRLPRPRPRPKHYPRP , system Escherichia coli TOP10? -0.283

What shrunken log2 fold change appears in the records for this sequence with Escherichia coli TOP10? RRIRFRPPRLPRPRPRPERAPRP 0.611

// fetch Escherichia coli TOP10 shrunken log2 fold change for RRIRGRPPRLPRPRPRPTNNPRP 0.217

Moving on to another sequence below.
What reported shrunken log2 fold change corresponds to RRIRWRPPRLPRPRPRPEEPPRP on Escherichia coli TOP10? 0.805

---

Test system: Escherichia coli TOP10
Experiment: shrunken log2 fold change of peptide-encoding DNA abundance (4.5 h post-induction vs induction); higher = less antimicrobial activity (less host growth inhibition)
Conditions: time post-induction: 4.5 h; library: site-saturation at positions 5, 18, 19, 20
Reported metric: shrunken log2 fold change
The reply should be a number, written without any unit.

What does the record list as shrunken log2 fold change for RRIRTRPPRLPRPRPRPVCYPRP ? -0.531

Name the reported shrunken log2 fold change value associated with the sequence RRIRLRPPRLPRPRPRPSYIPRP -0.427

# lookup: shrunken log2 fold change of RRIRKRPPRLPRPRPRPAGTPRP 0.992

What does the record list as shrunken log2 fold change for RRIRIRPPRLPRPRPRPIDLPRP ? -0.179

What value of shrunken log2 fold change has been reported for the following sequence? RRIRTRPPRLPRPRPRPREWPRP 0.259

Others:
Which value of shrunken log2 fold change has been reported for RRIRWRPPRLPRPRPRPLGNPRP in the records? -0.14

Which measured shrunken log2 fold change value corresponds to RRIRCRPPRLPRPRPRPKLWPRP ? 0.121

Quick one: shrunken log2 fold change for RRIRERPPRLPRPRPRPERRPRP ? -0.0345

Query: shrunken log2 fold change; subject: RRIRLRPPRLPRPRPRPCHNPRP 0.0575

shrunken log2 fold change lookup needed for RRIRMRPPRLPRPRPRPENSPRP , thanks. 2.07

Which shrunken log2 fold change value belongs to RRIRDRPPRLPRPRPRPEELPRP ? 0.00153

Name the recorded shrunken log2 fold change for RRIRSRPPRLPRPRPRPGFTPRP . -0.125

Look up shrunken log2 fold change: RRIRSRPPRLPRPRPRPQRIPRP -0.322

What value of measured shrunken log2 fold change is listed for RRIRWRPPRLPRPRPRPCFNPRP ? -0.382

Consider the sequence RRIRFRPPRLPRPRPRPKSYPRP and give its measured shrunken log2 fold change. -0.201

---

Test system: Escherichia coli TOP10
Test: shrunken log2 fold change of peptide-encoding DNA abundance (4.5 h post-induction vs induction); higher = less antimicrobial activity (less host growth inhibition)
Conditions: time post-induction: 4.5 h; library: site-saturation at positions 5, 18, 19, 20
Reported metric: shrunken log2 fold change
Please give only the number in your answer, with no unit.

Please report the recorded shrunken log2 fold change for RRIRARPPRLPRPRPRPNLEPRP . 0.0621

Request the reported shrunken log2 fold change associated with RRIRFRPPRLPRPRPRPVPYPRP -0.693

# input sequence: RRIRYRPPRLPRPRPRPRMAPRP ; wanted: its shrunken log2 fold change 0.0395

# input sequence: RRIRARPPRLPRPRPRPMWTPRP ; wanted: its shrunken log2 fold change 0.0207

Could you tell me which shrunken log2 fold change is on file for RRIRRRPPRLPRPRPRPRLTPRP ? 0.439

Query: shrunken log2 fold change; subject: RRIRERPPRLPRPRPRPYKCPRP -0.122

# shrunken log2 fold change lookup, item RRIRQRPPRLPRPRPRPQRTPRP 0.0128

Fill blank: measured shrunken log2 fold change of the sequence RRIRCRPPRLPRPRPRPMRAPRP is ____. 0.919

New cases:
Which measured shrunken log2 fold change value corresponds to RRIRIRPPRLPRPRPRPWGRPRP ? -0.239

Please look up its shrunken log2 fold change: RRIRMRPPRLPRPRPRPNAEPRP -0.0356

Need shrunken log2 fold change, item RRIRQRPPRLPRPRPRPICPPRP 0.128

Name the reported shrunken log2 fold change value associated with the sequence RRIRLRPPRLPRPRPRPNKRPRP -0.121

Reported shrunken log2 fold change for RRIRGRPPRLPRPRPRPRDWPRP : what is it? 1.25

Returns the measured shrunken log2 fold change for the input sequence. Input: RRIRFRPPRLPRPRPRPPAWPRP 0.354

Requested field: shrunken log2 fold change. Item: RRIRMRPPRLPRPRPRPEKDPRP 2.62

I am curious: what shrunken log2 fold change value has been reported for RRIRPRPPRLPRPRPRPKRAPRP ? 0.395

---

Parameter shrunken log2 fold change: see the listing below.
Tested on: Escherichia coli TOP10
Assay: shrunken log2 fold change of peptide-encoding DNA abundance (4.5 h post-induction vs induction); higher = less antimicrobial activity (less host growth inhibition)
Settings: time post-induction: 4.5 h; library: site-saturation at positions 5, 18, 19, 20
Simply state the number, no unit and no words.

The cases that follow already have their shrunken log2 fold change on record.
Item under review: RRIRGRPPRLPRPRPRPEPGPRP . Reported shrunken log2 fold change? 1.33

What value of measured shrunken log2 fold change is listed for RRIRGRPPRLPRPRPRPAYLPRP ? 0.235

Continuing:
Which measured shrunken log2 fold change value corresponds to RRIRIRPPRLPRPRPRPIPDPRP ? -1.08

---

Test system: Escherichia coli TOP10
Test: shrunken log2 fold change of peptide-encoding DNA abundance (4.5 h post-induction vs induction); higher = less antimicrobial activity (less host growth inhibition)
Settings: time post-induction: 4.5 h; library: site-saturation at positions 5, 18, 19, 20
Short version: shrunken log2 fold change at least -0.06 is condition met, less is condition not met.

// known answers, use as guide
# bool: shrunken log2 fold change of RRIRLRPPRLPRPRPRPPCMPRP >= -0.06 condition not met

Kindly determine if shrunken log2 fold change recorded for RRIRCRPPRLPRPRPRPATDPRP is above or exactly -0.06. condition not met

Answer whether shrunken log2 fold change of RRIRMRPPRLPRPRPRPADIPRP is greater than or equal to -0.06. condition met

Decide: shrunken log2 fold change of RRIRKRPPRLPRPRPRPLSEPRP >= -0.06? condition met

Check if shrunken log2 fold change >= -0.06 (inclusive). Item: RRIRTRPPRLPRPRPRPLTFPRP condition not met

Could you please find out whether RRIRYRPPRLPRPRPRPCSNPRP has shrunken log2 fold change that meets -0.06 or exceeds it? condition met

# check: shrunken log2 fold change of RRIRARPPRLPRPRPRPEVPPRP is greater than or equal to -0.06 condition met

Does the sequence RRIRCRPPRLPRPRPRPTSLPRP have recorded shrunken log2 fold change that is -0.06 or more? condition not met

Others:
Does RRIRNRPPRLPRPRPRPIVTPRP have a reported shrunken log2 fold change of at least -0.06? condition not met

Does the sequence RRIRSRPPRLPRPRPRPQESPRP have recorded shrunken log2 fold change that is -0.06 or more? condition met

Is reported shrunken log2 fold change greater than or equal to -0.06 here: RRIRWRPPRLPRPRPRPTQPPRP condition met

Decide: shrunken log2 fold change of RRIRVRPPRLPRPRPRPPALPRP >= -0.06? condition met

Is the recorded value of shrunken log2 fold change equal to or greater than -0.06 for this sequence? RRIRVRPPRLPRPRPRPRHIPRP condition not met

Record RRIRYRPPRLPRPRPRPRLDPRP ; criterion: shrunken log2 fold change no lower than -0.06. Met? condition not met

Form field: shrunken log2 fold change at least -0.06? Entry: RRIRARPPRLPRPRPRPECSPRP condition met

---

System: Escherichia coli TOP10;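 further: peptides expressed intracellularly from a pBAD plasmid library in pooled LB shake-flask culture, induced with 0.3% L-arabinose, DNA abundance read by NGS, three biological replicates, DESeq2 with apeglm shrinkage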
Test: shrunken log2 fold change of peptide-encoding DNA abundance (4.5 h post-induction vs induction); higher = less antimicrobial activity (less host growth inhibition)
Conditions: time post-induction: 4.5 h; library: site-saturation at positions 5, 18, 19, 20
Note to self: class labels come from recorded shrunken log2 fold change, ranges listed here: class 0: < -0.02; class 1: ≥ -0.02 and < 0.3; class 2: ≥ 0.3

Band for the recorded shrunken log2 fold change of RRIRDRPPRLPRPRPRPEMMPRP ? class 2

Place this sequence in its band: RRIRQRPPRLPRPRPRPVNWPRP class 2

Categorize the following entry: RRIRTRPPRLPRPRPRPFGAPRP class 2

Let's switch to this sequence now.
Input RRIRYRPPRLPRPRPRPLPSPRP ; output its category class 0
